- experiment: in vitro
- Assay type: cell-based
- test_parameters: human
reported_property: EC50

Q. Item "N=C(N)c1ccc(OCCCCCOc2ccc(C(=N)N)cc2)cc1" has what recorded EC50?
A. > 100 µM

====

- Test system: M12 cells
- experiment: M12 proliferation, automated count of red-fluorescent nuclei (IncuCyte ZOOM)
- Type: cell-based
- test_parameters: Homo sapiens, nuclei counted over time, read-out: M12 proliferation ED50
reported_property: EC50 (µM)
Give bare numbers, in µM.

Q. Item N=C(N)c1ccc(OCCCCCOc2ccc(C(=N)N)cc2)cc1 [Pentamidine] has what recorded EC50?
A. 40
